System: CP192
METHOD SUMMARY: qHTS profiling for inhibitors of Plasmodium falciparum proliferation (AID 504749); also: nearly all actives have a fitted effect of over 60% in size
CONDITION NOTES: P. falciparum in erythrocytes, SYBR Green DNA, 72 h; series mostly up to 28.7 µM
Records with an inconclusive call do not appear. Active and inactive are the calls of the source. Calls follow the shape of the dose curve; as a rule, active = well fitted inhibition curve with a large enough effect; inconclusive = small, poorly fitted or top-dose-only effect; inactive = flat fitted curve, though single readings scatter. Bridge positions count the residues as written; N and C are the ends. Square brackets hold non-standard residues; d marks the D form. Peptide text beside a SMILES is read from it. * marks the point of attachment. Octanoyl(6-Me) = CCC(C)CCCCC(=O)*; Dab = NCC[CH](N)C(=O)O
Classes used: 1.0 = active, 0.0 = inactive

>  <MOLECULE>
CC(C)CN(C[C@@H](O)[C@H](Cc1ccccc1)NC(=O)O[C@H]1CCOC1)S(=O)(=O)c1ccc(N)cc1

>  <LABEL VALUE>
0.0

$$$$
>  <MOLECULE>
C1OCOCO1

>  <LABEL VALUE>
0.0

$$$$
>  <MOLECULE>
CCC(C)CCCCC(=O)NC(CCN)C(=O)NC(C(=O)NC(CCN)C(=O)NC1CCNC(=O)C(C(C)O)NC(=O)C(CCN)NC(=O)C(CCN)NC(=O)C(CC(C)C)NC(=O)C(Cc2ccccc2)NC(=O)C(CCN)NC1=O)C(C)O (stereo unspecified) ({Octanoyl(6-Me)}-[Dab]T[Dab][Dab][Dab]FL[Dab][Dab]T; lactam 4-C; configuration not given here)

>  <LABEL VALUE>
0.0

$$$$
>  <MOLECULE>
CCN1/C(=C/C=C/C=C/c2sc3ccccc3[n+]2CC)Sc2ccccc21

>  <LABEL VALUE>
1.0

$$$$
>  <MOLECULE>
Nc1nc(Cl)nc2c1ncn2C1CC(O)C(CO)O1 (stereo unspecified)

>  <LABEL VALUE>
0.0

$$$$
>  <MOLECULE>
CC(=O)O[C@@]12CO[C@@H]1C[C@H](O)[C@@]1(C)C(=O)[C@H](O)C3=C(C)[C@@H](OC(=O)C(O)[C@@H](NC(=O)OC(C)(C)C)c4ccccc4)C[C@@](O)([C@@H](OC(=O)c4ccccc4)[C@H]21)C3(C)C (stereo partly specified)

>  <LABEL VALUE>
1.0

$$$$

---

TESTED TARGET: Phospholipid hydroperoxide glutathione peroxidase GPX4 (Homo sapiens) (UniProt P36969)
Sequence (P36969 whole entry, looked up): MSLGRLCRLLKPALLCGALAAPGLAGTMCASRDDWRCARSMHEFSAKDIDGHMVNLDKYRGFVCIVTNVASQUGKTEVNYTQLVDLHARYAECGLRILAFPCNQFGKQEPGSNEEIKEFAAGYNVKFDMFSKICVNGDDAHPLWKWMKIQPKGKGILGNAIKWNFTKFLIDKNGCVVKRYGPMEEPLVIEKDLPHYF
METHOD SUMMARY: Primary qHTS Assay for Inhibitors of Recombinant Selenoprotein Glutathione Peroxidase 4 (GPX4) (AID 1845192); also: potency is read from the fitted curve at half-maximal effect; nearly all actives have a fitted effect of over 65% in size
CONDITION NOTES: recombinant GPX4, GR-coupled NADPH fluorescence, 15 min; series mostly up to 50 µM
Experimental: Assay Provider: Elias S.J. Arner MD PhD. Department of Medical Biochemistry and Biophysics Karolinska Institutet, Solna, Stockholm, Sweden […] 6; Detection; Fluorescence; ViewLux microplate reader, excitation 340 nm and emission 450 nm. […] 8; Detection; Fluorescence; ViewLux microplate reader, excitation 340 nm and emission 450 nm. […] 6. Initial fluorescence readout (t=0) at 340/450 nm was measured using a ViewLux multimodal detector (PerkinElmer, Waltham, MA). […]
Inconclusive results are not listed. Calls of active or inactive are those of the source. Calls follow the shape of the dose curve; as a rule, active = well fitted inhibition curve with a large enough effect; inconclusive = small, poorly fitted or top-dose-only effect; inactive = flat fitted curve, though single readings scatter.
MEASURE: Potency

>  <STRUCTURE STRING>
CCCCC/C=C/C/C=C/CCCCCCCC(=O)O

>  <TESTED TARGET>
Phospholipid hydroperoxide glutathione peroxidase GPX4 (Homo sapiens) (UniProt P36969)

>  <REPORTED RESULT>
4.47 µM (active)

$$$$
>  <STRUCTURE STRING>
Cc1cnc(C(=O)N[C@H]2CCCCC/C=C/[C@@H]3C[C@@]3(C(=O)NS(=O)(=O)C3CC3)NC(=O)[C@@H]3C[C@@H](Oc4nc5ccccc5c5ccccc45)CN3C2=O)cn1

>  <TESTED TARGET>
Phospholipid hydroperoxide glutathione peroxidase GPX4 (Homo sapiens) (UniProt P36969)

>  <REPORTED RESULT>
3.98 µM (active)

$$$$
>  <STRUCTURE STRING>
COC(=O)N[C@H](C(=O)N1CCC[C@H]1c1ncc(-c2ccc3c(c2)O[C@@H](c2ccccc2)n2c-3cc3cc(-c4cnc([C@@H]5CCCN5C(=O)[C@@H](NC(=O)OC)C(C)C)[nH]4)ccc32)[nH]1)C(C)C

>  <TESTED TARGET>
Phospholipid hydroperoxide glutathione peroxidase GPX4 (Homo sapiens) (UniProt P36969)

>  <REPORTED RESULT>
6.31 µM (active)

$$$$
